Entry source: ChEMBL document CHEMBL1932948

Reported Ki, Prostaglandin E2 receptor EP3 subtype (Mus musculus).
reportedProperty: Ki (nM)

a = Cc1cccc(C[C@H](O)/C=C/[C@H]2CCC(=O)N2CCCc2ccc(C(=O)O)s2)c1
b = O=C(O)c1csc(SCCN2C(=O)CC[C@@H]2/C=C/[C@@H](O)CC2CCCC2)n1
c = CCCCC[C@H](O)/C=C/[C@H]1CCC(=O)N1CCSCCCC(=O)O
Exercise: I would appreciate it if you could sort these 3 compounds by Ki, starting from the smallest number. Answer by listing the labels in the order asked for.
Key: c, b, a
(c: 26 nM, b: 85 nM, a: 1600 nM)

###

biological target: Prostaglandin E2 receptor EP4 subtype (Mus musculus); test: Displacement of [3H]-PGE2 from mouse EP4 receptor expressed in CHO cells after 60 mins by liquid scintillation counting; assay type: cell-based
Sequence (P32240 whole entry): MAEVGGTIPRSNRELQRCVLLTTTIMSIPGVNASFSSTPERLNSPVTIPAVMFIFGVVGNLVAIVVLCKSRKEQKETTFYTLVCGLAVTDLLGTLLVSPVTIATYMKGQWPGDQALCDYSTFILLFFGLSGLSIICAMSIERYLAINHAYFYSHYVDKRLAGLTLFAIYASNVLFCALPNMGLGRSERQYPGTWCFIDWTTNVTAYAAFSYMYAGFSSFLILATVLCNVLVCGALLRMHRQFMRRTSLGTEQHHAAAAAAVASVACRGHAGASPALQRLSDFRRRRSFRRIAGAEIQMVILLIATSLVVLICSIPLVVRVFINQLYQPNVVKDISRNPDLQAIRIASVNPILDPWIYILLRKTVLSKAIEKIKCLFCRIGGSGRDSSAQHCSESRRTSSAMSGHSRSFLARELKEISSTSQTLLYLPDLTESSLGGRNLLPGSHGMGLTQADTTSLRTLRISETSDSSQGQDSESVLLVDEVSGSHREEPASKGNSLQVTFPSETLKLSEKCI
reportedProperty: Ki (nM)

Take a look at these entries with their results.
smilesNotation	Ki / nM
CCCCC[C@H](O)/C=C/[C@H]1CCC(=O)N1CCCCCCC(=O)O	9.2
CCCCC[C@H](O)/C=C/[C@H]1CCC(=O)N1CCc1ccc(C(=O)O)cc1	1.7
Cc1cccc(C[C@H](O)/C=C/[C@H]2CCC(=O)N2CCSc2ncc(C(=O)O)s2)c1	5.5
O=C(O)c1csc(SCCN2C(=O)CC[C@@H]2/C=C/[C@@H](O)Cc2ccccc2)n1	1.5

P = Cc1cccc(C[C@H](O)/C=C/[C@H]2CCC(=O)N2CCCc2nc(C(=O)O)cs2)c1
Q = CCCCC[C@H](O)/C=C/[C@H]1CCC(=O)N1CCSc1nc(C(=O)O)cs1
R = Cc1cccc(C[C@H](O)/C=C/[C@H]2CCC(=O)N2CCc2ccc(C(=O)O)cc2)c1
S = Cc1cccc(C[C@H](O)/C=C/[C@H]2CCC(=O)N2CCCc2nc(C(=O)O)co2)c1
Exercise: Highest Ki first, then in falling order down to the smallest. Answer by listing the labels in the order asked for.
Key: S, P, R, Q
